Listing: apparent Kd (screen) of selected binders
Molecular target: T1, TNFR1 (Homo sapiens, UniProt P19438)
T1 chain: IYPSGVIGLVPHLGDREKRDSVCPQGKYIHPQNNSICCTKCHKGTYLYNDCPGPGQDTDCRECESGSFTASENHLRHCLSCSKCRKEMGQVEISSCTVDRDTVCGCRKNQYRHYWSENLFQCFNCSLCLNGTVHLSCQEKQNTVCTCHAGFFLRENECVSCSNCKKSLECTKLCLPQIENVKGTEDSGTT
Test: yeast display SC50
property: apparent Kd (screen) (nM)

binder="K33A (designed binder) SMEEEVEKAAKEYEKKKKEAIEKHLEKLKAKDAEAAERFLKELEEAAKEYAKDEAKTMSEEEAKRRAKKYKEKVLLSELSEEEQKEIKEAEEKLVRTILKYVEEAAK" property="apparent Kd (screen)" test_value=0.49
binder="K93Q (designed binder) SMEEEVEKAAKEYEKKKKEAIEKHLEKLKAKDKEAAERFLKELEEAAKEYAKDEAKTMSEEEAKRRAKKYKEKVLLSELSEEEQKEIKEAEEQLVRTILKYVEEAAK" property="apparent Kd (screen)" test_value=0.49
binder="K73M (designed binder) SMEEEVEKAAKEYEKKKKEAIEKHLEKLKAKDKEAAERFLKELEEAAKEYAKDEAKTMSEEEAKRRAKKYKEMVLLSELSEEEQKEIKEAEEKLVRTILKYVEEAAK" property="apparent Kd (screen)" test_value=0.869
binder="Y70P (designed binder) SMEEEVEKAAKEYEKKKKEAIEKHLEKLKAKDKEAAERFLKELEEAAKEYAKDEAKTMSEEEAKRRAKKPKEKVLLSELSEEEQKEIKEAEEKLVRTILKYVEEAAK" property="apparent Kd (screen)" test_value=5.31
